From: paper PMC5339707

# tgt: the molecule itself
# test: SEC-MALS; self-association of His6-SspB-CCD fusion proteins (ACCORD); Superdex 200 10/300 GL, 50 mM Tris pH 8.0, 0.5 mM TCEP, 200 mM NaCl; sample 3-5 mg/ml, 0.5 ml
parameter: stoichiometry N
// return a plain number; no unit text

1. His6-SspB-ROCK1 (535-709) fusion protein (other, E. coli | H. sapiens, UniProt P0AFZ3 1-165, looked up, Stringent starvation protein B (SspB), E. coli, full length, residues 1-165 (M1-K165), amplified from genomic DNA; Rho-associated coiled-coil containing protein kinase 1 (ROCK1), human, coiled-coil domain, residues 535-709 (L535-K709); CCD ligated behind SspB in the His6-SspB vector (BamHI at the 5' end); vector holds TEV and thrombin cleavage sites; source: E. coli BL21(DE3), purified (HisTrap, …)) MDLSQLTPRRPYLLRAFYEWLLDNQLTPHLVVDVTLPGVQVPMEYARDGQIVLNIAPRAVGNLELANDEVRFNARFGGIPRQVSVPLAAVLAIYARENGAGTMFEPEAAYDEDTSIMNDEEASADNETVMSVIDGDKPDHDDDTHPDDEPPQPPRGGRPALRVVKLANEKLSQLQKQLEEANDLLRTESDTAVRLRKSHTEMSKSISQLESLNRELQERNRILENSKSQTDKDYYQLQAILEAERRDRGHDSEMIGDLQARITSLQEEVKHLKHNLEKVEGERKEAQDMLNHSEKEKNNLEIDLNYKLKSLQQRLEQEVNEHKVTKARLTDKHQSIEEAK :: 2

Fill in the blank: the reported stoichiometry N of His6-SspB-Ndel1 (8-99) fusion protein (other, E. coli | R. norvegicus, UniProt P0AFZ3 1-165, looked up, Stringent starvation protein B (SspB), E. coli, full length, residues 1-165 (M1-K165), amplified from genomic DNA; Major peak a dimer; source: E. coli BL21(DE3), purified (HisTrap, Superdex 200); not shown: His6, N-terminal, kept) MDLSQLTPRRPYLLRAFYEWLLDNQLTPHLVVDVTLPGVQVPMEYARDGQIVLNIAPRAVGNLELANDEVRFNARFGGIPRQVSVPLAAVLAIYARENGAGTMFEPEAAYDEDTSIMNDEEASADNETVMSVIDGDKPDHDDDTHPDDEPPQPPRGGRPALRVVKDFSSLKEETAYWKELSLKYKQSFQEARDELVEFQEGSRELEAELEAQLVQAEQRNRDLQADNQRLKYEVEALKEKLEHQYAQSYKQVSVLED is ____.
2
